Values were extracted from patent US20150140000A1.

Molecular target: wild-type human TLR3 ECD-CD32 construct (V5-TLR3-CD32) on HEK293T cells (human)
Experiment: flow cytometry, 293T cells expressing TLR3/CD32 solely at the surface, neutral pH
readout_label: EC50 (µg/mL)
Give just the numeric value; µg/mL need not be written.

Notebook: antibody 32C4 (antibody, V domains shown, Rat monoclonal from LOU/c immunization #2; also called clone 32C4) VH: EVQLQQYGAELGKPGTSVKLSCKVSGYNIWSTYIYWVNQRPGKGLEWIGRIDPANGNTIYAEKFKTKATLTADTSSNTAYMQLSQLKSDDTAIYFCAMGDHGGYVMDAWGQGASVTVSS VL: DIQMTQSPGSLSASLGETVSIECLASEDIYSYLAWYQQKPGKSPQLLIYAANRLEDGVPSRFSGSGSGTQYSLKISGMQPEDEGDYFCLQGSEFPYTFGTGTKLELK , EC50 read as 0.037
